Values compiled from patent US20260078130A1.

Molecular target: human enzyme NAMPT (full length) (Homo sapiens)
Construct: human enzyme NAMPT (full length)
Sequence (P43490 whole entry): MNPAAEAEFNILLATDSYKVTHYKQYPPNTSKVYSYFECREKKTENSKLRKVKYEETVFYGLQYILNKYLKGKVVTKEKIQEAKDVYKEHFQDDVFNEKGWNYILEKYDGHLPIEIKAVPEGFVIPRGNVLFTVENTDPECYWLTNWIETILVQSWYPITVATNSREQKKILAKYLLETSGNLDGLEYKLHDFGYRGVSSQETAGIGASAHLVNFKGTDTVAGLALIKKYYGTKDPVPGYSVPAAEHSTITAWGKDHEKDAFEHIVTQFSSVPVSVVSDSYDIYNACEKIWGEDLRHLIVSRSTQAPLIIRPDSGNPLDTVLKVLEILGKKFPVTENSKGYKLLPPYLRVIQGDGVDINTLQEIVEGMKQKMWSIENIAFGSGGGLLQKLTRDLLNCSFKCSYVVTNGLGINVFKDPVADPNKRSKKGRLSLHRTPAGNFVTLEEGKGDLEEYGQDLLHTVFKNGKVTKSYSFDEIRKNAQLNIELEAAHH
Experiment: NMN fluorescence biochemical assay (stimulation of NMN synthesis by NAMPT)
Conditions: NMN fluorescence assay, purified human NAMPT 100 nM; concentration giving half-maximal activation; read-out: Enzymatic EC50
property.label: EC50

>>> result("O=C1c2ccccc2C(Cc2nn(C3CC4(COC4)C3)cc2Cl)N1Cc1ccc2[nH]nnc2c1 (centres unmarked)")
"< 500 nM"
>>> result("[2H]C([2H])(c1c(Cl)cnn1C)C1c2ccccc2C(C)(C)N1CC1CC2(CNC(=O)O2)C1 (centres unmarked)")
"500 to 5000 nM"
>>> result("N#Cc1ccnc(C#N)c1CC1c2ccccc2C(=O)N1Cc1ccc2[nH]nnc2c1 (centres unmarked)")
"< 500 nM"

Data request: Print human enzyme NAMPT (full length) (Homo sapiens) EC50 for O=C1N[C@H]2CCC(CN3C(=O)c4ccccc4C3Cc3ncccc3Br)C[C@@H]2O1 (relative stereo) .
Data returned: ≥ 5000 nM

Data request: Report its EC50 with human enzyme NAMPT (full length) (Homo sapiens) as the test system: CC(=O)Nc1ncc(CN2C(=O)c3ccccc3C2Cc2ncccc2Br)cn1 (centres unmarked)
Data returned: 500 to 5000 nM

Data request: Give the observed EC50 of Cn1ncc(Cl)c1CC1c2ccccc2C(=O)N1[C@H]1C[C@H](c2c[nH]c(=O)o2)C1 (some centres unmarked) for human enzyme NAMPT (full length) (Homo sapiens).
Data returned: ≥ 5000 nM

Data request: Write EC50 of Cc1ccnc(Br)c1CC1c2ccccc2C(=O)N1C/C=C/c1c[nH]nn1 (centres unmarked) ; system used: human enzyme NAMPT (full length) (Homo sapiens)
Data returned: < 500 nM

Data request: Under human enzyme NAMPT (full length) (Homo sapiens): report EC50 of Cn1ncc(Cl)c1CC1c2ccccc2C(=O)N1CC1CC2(CNC(=O)S2)C1 (centres unmarked) .
Data returned: < 500 nM
